Overview of reported viability, T/C across a group of molecules:
test system: 843126-344-R-J1-PDC complex spheroid viability; assay: Anticancer human tumor 843126-344-R-J1-PDC patient-derived melanoma cell line growth inhibition [POLQ]; details: second compound 10 µM; first compound 1 µM; hits give low values
Only the number, expressed in %, is required.

These recorded examples may help you get a feel for the data.
INSERT INTO assay_data (molecule, data_value) VALUES
  ('CNCc1ccc(-c2[nH]c3cc(F)cc4c3c2CCNC4=O)cc1 + Cc1cccc(N(C)C(=O)C2C(O)CCN2c2nc(C)cc(C(F)(F)F)c2C#N)c1', 90.5),
  ('O=c1[nH]cc(F)c(=O)[nH]1 + Cc1cccc(N(C)C(=O)C2C(O)CCN2c2nc(C)cc(C(F)(F)F)c2C#N)c1', 102),
  ('C#Cc1c(F)ccc2cc(O)cc(-c3ncc4c(N5CC6CCC(C5)N6)nc(OCC56CCCN5CC(F)C6)nc4c3F)c12 (configuration not stated) + Nc1ccc(C#CCN(C(=O)Cc2ncc(C(F)(F)F)cc2C(F)(F)F)c2ccc(F)cc2)nn1', 83.6);

Note to self: viability, T/C recorded for CC1COCCN1c1cc(-c2ccnn2C)c2ccnc(-c3ccn[nH]3)c2n1 (configuration not stated) + Cc1cccc(N(C)C(=O)C2C(O)CCN2c2nc(C)cc(C(F)(F)F)c2C#N)c1 was 57.6

Note to self: viability, T/C recorded for CC1COCCN1c1cc(C2(O)CC3CCC(C2)O3)c2cnn(-c3ccn[nH]3)c2n1 (configuration not stated) + Nc1ccc(C#CCN(C(=O)Cc2ncc(C(F)(F)F)cc2C(F)(F)F)c2ccc(F)cc2)nn1 was 33

Note to self: viability, T/C recorded for C=CC(=O)N1CCN(c2nc(=O)n(-c3c(C)ccnc3C(C)C)c3nc(-c4c(O)cccc4F)c(F)cc23)C(C)C1 (configuration not stated) + Cc1cccc(N(C)C(=O)C2C(O)CCN2c2nc(C)cc(C(F)(F)F)c2C#N)c1 was 89.5

Note to self: viability, T/C recorded for CCc1cc2c(N3CCc4c(cc(Cn5ccnc5)cc4-c4cn(C)nc4C(F)(F)F)C3=O)cc(C)nc2c(OC)n1 + Nc1ccc(C#CCN(C(=O)Cc2ncc(C(F)(F)F)cc2C(F)(F)F)c2ccc(F)cc2)nn1 was 81.5

---

Overview of reported viability, T/C across a group of compounds:
tested on: 843126-344-R-J1-PDC complex spheroid viability; test: Anticancer human tumor 843126-344-R-J1-PDC cell line growth inhibition [POLQ]; conditions: second compound 1 µM; first compound 0.1 µM; hits give low values;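 note: spheroids exposed to drugs for seven days before readout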
Only the number, expressed in %, is required.

These recorded examples may help you get a feel for the data.
INSERT INTO measurements (compound, system_under_test, data_value) VALUES
  ('CC1COCCN1c1cc(-c2ccnn2C)c2ccnc(-c3ccn[nH]3)c2n1 (stereo unspecified) + Nc1ccc(C#CCN(C(=O)Cc2ncc(C(F)(F)F)cc2C(F)(F)F)c2ccc(F)cc2)nn1', '843126-344-R-J1-PDC complex spheroid viability', 65.8),
  ('CC1COCCN1c1cc(C2(O)CC3CCC(C2)O3)c2cnn(-c3ccn[nH]3)c2n1 (stereo unspecified) + COC1C(OC(N)=O)C(O)C(Oc2ccc3c(O)c(NC(=O)c4ccc(O)c(CC=C(C)C)c4)c(=O)oc3c2C)OC1(C)C', '843126-344-R-J1-PDC complex spheroid viability', 68.3),
  ('Cn1ncnc1[C@H]1c2n[nH]c(=O)c3cc(F)cc(c23)N[C@@H]1c1ccc(F)cc1 + Nc1ccc(C#CCN(C(=O)Cc2ncc(C(F)(F)F)cc2C(F)(F)F)c2ccc(F)cc2)nn1', '843126-344-R-J1-PDC complex spheroid viability', 73.1);

Note to self: viability, T/C recorded for CC[C@@]1(O)C(=O)OCc2c1cc1n(c2=O)Cc2cc3c(CN(C)C)c(O)ccc3nc2-1 + Nc1ccc(C#CCN(C(=O)Cc2ncc(C(F)(F)F)cc2C(F)(F)F)c2ccc(F)cc2)nn1 was 49.2

Note to self: viability, T/C recorded for CC(C)n1c(=O)n(C)c2cnc3cc(F)c(-c4ccc(OCCCN5CCCCC5)nc4)cc3c21 + COC1C(OC(N)=O)C(O)C(Oc2ccc3c(O)c(NC(=O)c4ccc(O)c(CC=C(C)C)c4)c(=O)oc3c2C)OC1(C)C was 82.4

Note to self: viability, T/C recorded for O=c1[nH]cc(F)c(=O)[nH]1 + Cc1cccc(N(C)C(=O)C2C(O)CCN2c2nc(C)cc(C(F)(F)F)c2C#N)c1 was 88.6

Note to self: viability, T/C recorded for CCCS(=O)(=O)Nc1ccc(F)c(C(=O)c2c[nH]c3ncc(-c4ccc(Cl)cc4)cc23)c1F + COC1C(OC(N)=O)C(O)C(Oc2ccc3c(O)c(NC(=O)c4ccc(O)c(CC=C(C)C)c4)c(=O)oc3c2C)OC1(C)C was 98.2

Note to self: viability, T/C recorded for C=CC(=O)N1CCN(c2nc(=O)n(-c3c(C)ccnc3C(C)C)c3nc(-c4c(O)cccc4F)c(F)cc23)C(C)C1 (stereo unspecified) + Cc1cccc(N(C)C(=O)C2C(O)CCN2c2nc(C)cc(C(F)(F)F)c2C#N)c1 was 84.7

Note to self: viability, T/C recorded for CCc1cc2c(N3CCc4c(cc(Cn5ccnc5)cc4-c4cn(C)nc4C(F)(F)F)C3=O)ccnc2c(OC)n1 + Cc1cccc(N(C)C(=O)C2C(O)CCN2c2nc(C)cc(C(F)(F)F)c2C#N)c1 was 77.3

Note to self: viability, T/C recorded for O=C(c1cc(Cc2n[nH]c(=O)c3ccccc23)ccc1F)N1CCN(C(=O)C2CC2)CC1 + Nc1ccc(C#CCN(C(=O)Cc2ncc(C(F)(F)F)cc2C(F)(F)F)c2ccc(F)cc2)nn1 was 93.9

Note to self: viability, T/C recorded for CNCc1ccc(-c2[nH]c3cc(F)cc4c3c2CCNC4=O)cc1 + COC1C(OC(N)=O)C(O)C(Oc2ccc3c(O)c(NC(=O)c4ccc(O)c(CC=C(C)C)c4)c(=O)oc3c2C)OC1(C)C was 98.6

---

Overview of reported viability, T/C across a group of molecules:
tested on: 843126-344-R-J1-PDC complex spheroid viability; assay: Anticancer human tumor 843126-344-R-J1-PDC cell line growth inhibition [POLQ]; conditions: second compound 1 µM; first compound 0.1 µM; hits give low values;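 note: spheroids exposed to drugs for seven days before readout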
Only the number, expressed in %, is required.

These recorded examples may help you get a feel for the data.
INSERT INTO measurements (molecule, result_units, data_value) VALUES
  ('O=C(Nc1ccc(O)c(NS(=O)(=O)c2ccc(F)cc2)c1)c1ccc(-c2ccccc2)cc1 + Cc1cccc(N(C)C(=O)C2C(O)CCN2c2nc(C)cc(C(F)(F)F)c2C#N)c1', '%', 88.1),
  ('Cn1ncnc1[C@H]1c2n[nH]c(=O)c3cc(F)cc(c23)N[C@@H]1c1ccc(F)cc1 + Cc1cccc(N(C)C(=O)C2C(O)CCN2c2nc(C)cc(C(F)(F)F)c2C#N)c1', '%', 78.6),
  ('CCc1cc2c(N3CCc4c(cc(Cn5ccnc5)cc4-c4cn(C)nc4C(F)(F)F)C3=O)cc(C)nc2c(OC)n1 + Cc1cccc(N(C)C(=O)C2C(O)CCN2c2nc(C)cc(C(F)(F)F)c2C#N)c1', '%', 89.5);

Note to self: viability, T/C recorded for C=CCn1c(=O)c2cnc(Nc3ccc(N4CCN(C)CC4)cc3)nc2n1-c1cccc(C(C)(C)O)n1 + Cc1cccc(N(C)C(=O)C2C(O)CCN2c2nc(C)cc(C(F)(F)F)c2C#N)c1 was 99.5

Note to self: viability, T/C recorded for CCc1cc2c(N3CCc4c(cc(Cn5ccnc5)cc4-c4cn(C)nc4C(F)(F)F)C3=O)cc(C)nc2c(OC)n1 + COC1C(OC(N)=O)C(O)C(Oc2ccc3c(O)c(NC(=O)c4ccc(O)c(CC=C(C)C)c4)c(=O)oc3c2C)OC1(C)C was 67.4

---

test system: 843126-344-R-J1-PDC complex spheroid viability; assay: Anticancer human tumor 843126-344-R-J1-PDC cell line growth inhibition [POLQ]; details: second compound 0.0316 µM; first compound 0.1 µM; hits give low values;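 note: spheroids exposed to drugs for seven days before readout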
Overview of reported viability, T/C across a group of compounds:
Only the number, expressed in %, is required.

Note to self: viability, T/C recorded for CCc1cc2c(N3CCc4c(cc(Cn5ccnc5)cc4-c4cn(C)nc4C(F)(F)F)C3=O)cc(C)nc2c(OC)n1 + Cc1cccc(N(C)C(=O)C2C(O)CCN2c2nc(C)cc(C(F)(F)F)c2C#N)c1 was 92.8

Note to self: viability, T/C recorded for COc1ccc([C@@H](O)c2cc(-c3ncnc4cc(N5CCOCC5)ccc34)c(F)cc2Cl)nn1 + COC1C(OC(N)=O)C(O)C(Oc2ccc3c(O)c(NC(=O)c4ccc(O)c(CC=C(C)C)c4)c(=O)oc3c2C)OC1(C)C was 82.3

Note to self: viability, T/C recorded for Cn1ncnc1[C@H]1c2n[nH]c(=O)c3cc(F)cc(c23)N[C@@H]1c1ccc(F)cc1 + Cc1cccc(N(C)C(=O)C2C(O)CCN2c2nc(C)cc(C(F)(F)F)c2C#N)c1 was 71.8

Note to self: viability, T/C recorded for CCc1cc2c(N3CCc4c(cc(Cn5ccnc5)cc4-c4cn(C)nc4C(F)(F)F)C3=O)cc(C)nc2c(OC)n1 + Nc1ccc(C#CCN(C(=O)Cc2ncc(C(F)(F)F)cc2C(F)(F)F)c2ccc(F)cc2)nn1 was 95.3

Note to self: viability, T/C recorded for CCc1cc2c(N3CCc4c(cc(Cn5ccnc5)cc4-c4cn(C)nc4C(F)(F)F)C3=O)ccnc2c(OC)n1 + Nc1ccc(C#CCN(C(=O)Cc2ncc(C(F)(F)F)cc2C(F)(F)F)c2ccc(F)cc2)nn1 was 90.2

Note to self: viability, T/C recorded for C#Cc1c(F)ccc2cc(O)cc(-c3ncc4c(N5CC6CCC(C5)N6)nc(OCC56CCCN5CC(F)C6)nc4c3F)c12 (centres undefined) + COC1C(OC(N)=O)C(O)C(Oc2ccc3c(O)c(NC(=O)c4ccc(O)c(CC=C(C)C)c4)c(=O)oc3c2C)OC1(C)C was 116
